// data source = patent US9611277B2

- Target System: human orexin 2 receptor (Homo sapiens (Human))
- Sequence (O43614 whole entry): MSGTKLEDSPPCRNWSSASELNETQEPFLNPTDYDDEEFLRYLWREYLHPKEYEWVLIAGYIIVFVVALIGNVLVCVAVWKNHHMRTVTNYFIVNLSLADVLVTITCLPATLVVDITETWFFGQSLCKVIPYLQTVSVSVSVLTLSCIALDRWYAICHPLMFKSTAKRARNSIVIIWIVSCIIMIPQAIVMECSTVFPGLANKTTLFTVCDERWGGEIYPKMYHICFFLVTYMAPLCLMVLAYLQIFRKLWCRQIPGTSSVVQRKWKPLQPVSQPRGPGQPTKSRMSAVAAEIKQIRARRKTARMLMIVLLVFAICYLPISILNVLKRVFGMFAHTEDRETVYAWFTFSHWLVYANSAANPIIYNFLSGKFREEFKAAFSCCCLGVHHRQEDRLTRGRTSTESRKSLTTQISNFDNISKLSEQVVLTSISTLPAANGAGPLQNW
- Method Notes: Human orexin 2 receptor radioligand binding
- Condition Summary: human orexin 2 receptor; averages of 2-20 runs; read-out: hOX2 Ki
Quantity Name: Ki (nM)

Study these solved cases before continuing.
Molecule	Reported
Cc1ccc(-n2nccn2)c(C(=O)N2C[C@H]3C[C@@H](Nc4ncc(C(F)(F)F)cc4F)[C@@H]2C3)n1	112
O=C(c1ccccc1-n1nccn1)N1C[C@H]2C[C@@H](Oc3ccc(Cl)cn3)[C@@H]1C2	459

I: O=C(c1c(F)cccc1-n1nccn1)N1CC2CC(Nc3ccc(C(F)(F)F)cn3)C1C2 (stereo not shown)
II: O=C(c1ccccc1-c1ncccn1)N1C[C@H]2C[C@@H](Nc3ncc(Cl)cn3)[C@@H]1C2
III: O=C(c1cccc(F)c1-c1ncccn1)N1C[C@@H]2CC[C@H]1[C@H](Oc1ncc(C(F)(F)F)cc1Cl)C2
IV: Cc1ccc(-n2nccn2)c(C(=O)N2CC3CC(Oc4ncc(C(F)(F)F)cc4F)C2C3)n1 (stereo not shown)
### Prompt Write the entries in order, lowest recorded Ki first. Response format: the labels, sorted as the prompt asks.
### Response I, III, II, IV
